Where these numbers come from: patent EP0327365B1

- System: T-380 tumors
- ASSAY_COMMENT: Hapten biodistribution, premix protocol with bifunctional antibody ECH037.2
- Assay type: in vivo, nude mice
- MEASUREMENT_CONDITIONS: 24 hours; premix with 20 µg ECH037.2

{"COMPOUND": "O=C(O)Cc1ccc(NC(=S)Nc2ccc(CC(CN(CC(=O)O)CC(=O)O)N(CC(=O)O)CC(=O)O)cc2)cc1 (stereo not shown)", "FECES": "22.0% of total injected dose"}
{"COMPOUND": "O=C(O)CCCNC(=S)Nc1ccc(CC(CN(CC(=O)O)CC(=O)O)N(CC(=O)O)CC(=O)O)cc1 (stereo not shown)", "FECES": "6.9% of total injected dose"}
{"COMPOUND": "CC(=O)NC(CCCCNC(=S)Nc1ccc(CC(CN(CC(=O)O)CC(=O)O)N(CC(=O)O)CC(=O)O)cc1)C(N)=O (stereo not shown)", "FECES": "6.8% of total injected dose"}
{"COMPOUND": "O=C(O)CCNC(=S)Nc1ccc(CC(CN(CC(=O)O)CC(=O)O)N(CC(=O)O)CC(=O)O)cc1 (stereo not shown)", "FECES": "5.0% of total injected dose"}
{"COMPOUND": "O=C(O)CCCC(=O)NCCNC(=S)Nc1ccc(CC(CN(CC(=O)O)CC(=O)O)N(CC(=O)O)CC(=O)O)cc1 (stereo not shown)", "FECES": "10.6% of total injected dose"}
{"COMPOUND": "O=C(O)CN(CC(=O)O)CC(Cc1ccc(NC(=S)NCc2ccccc2)cc1)N(CC(=O)O)CC(=O)O (stereo not shown)", "FECES": "17.4% of total injected dose"}
{"COMPOUND": "CCNC(=S)Nc1ccc(CC(CN(CC(=O)O)CC(=O)O)N(CC(=O)O)CC(=O)O)cc1 (stereo not shown)", "FECES": "5.9% of total injected dose"}
